Each entry below carries its reported MIC.
tested on: carbapenemase producing K. pneumoniae; test: MIC by broth micro-dilution (CLSI), carbapenemase producing K. pneumoniae; format: cell-based, Klebsiella pneumoniae; conditions: Klebsiella pneumoniae, ATCCBAA1705, KPC-2 K. pneumoniae ATCC BAA-1705; read-out: MIC
test_readout: MIC

compound	result
C[C@@H](NC(=O)Cn1cnnn1)[C@H]1C(=O)N2C(C(=O)O)=C(S[C@@H]3CN[C@H](C(=O)N4CC5C[C@@H]6C[C@]5(CN6)C4)C3)[C@H](C)[C@H]12 (some centres unmarked) [Example 564]	1 µg/mL
C[C@@H](NC(=O)C(F)F)[C@H]1C(=O)N2C(C(=O)O)=C(S[C@@H]3CN[C@H](C(=O)NCCN(C)C)C3)[C@H](C)[C@H]12 [Example 102]	8 µg/mL
CNCC(=O)N[C@H](C)[C@H]1C(=O)N2C(C(=O)O)=C(S[C@@H]3CN[C@H](CNC(=O)[C@@H]4C[C@H](F)CN4)C3)[C@H](C)[C@H]12 [Example 282]	2 µg/mL
C[C@@H](NC(=O)Cn1cnnn1)[C@H]1C(=O)N2C(C(=O)[O-])=C(SC3Cn4cnc[n+]4C3)[C@H](C)[C@H]12 (some centres unmarked) [Example 306]	1 µg/mL
C[C@@H](NC(=O)Cn1cnnn1)[C@H]1C(=O)N2C(C(=O)O)=C(S[C@@H]3CN[C@H](C(=O)N4CCN(C[C@@H](O)CN)CC4)C3)[C@H](C)[C@H]12 [Example 442]	1 µg/mL

Every entry's value here was drawn from patent US11180504B2.
